Target: human adenosine A2A receptor (Homo sapiens, UniProt P29274)
Construct: expressed in transfected cells; host or cells: CHO cells, Semliki Forest virus expression system; membrane preparation
Sequence (P29274 whole entry): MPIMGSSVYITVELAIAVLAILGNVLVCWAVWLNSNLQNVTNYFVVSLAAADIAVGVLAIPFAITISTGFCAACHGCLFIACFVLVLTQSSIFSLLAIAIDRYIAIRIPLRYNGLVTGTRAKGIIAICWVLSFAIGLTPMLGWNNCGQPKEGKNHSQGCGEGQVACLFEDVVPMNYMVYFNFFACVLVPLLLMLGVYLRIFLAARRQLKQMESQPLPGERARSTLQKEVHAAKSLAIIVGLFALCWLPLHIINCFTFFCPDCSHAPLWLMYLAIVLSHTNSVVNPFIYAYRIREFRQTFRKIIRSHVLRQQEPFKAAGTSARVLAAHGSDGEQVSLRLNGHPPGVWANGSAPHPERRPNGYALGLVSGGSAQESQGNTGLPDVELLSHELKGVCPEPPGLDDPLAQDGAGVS
Experiment: Human adenosine A2A receptor [3H]-SCH-58261 binding assay
Settings: calculated ratio of the affinity to the HA1 receptor to the HA2a receptor
outcome measure: selectivity (A1/A2a)

Reference set (3 entries):
stdin: Indicate its recorded selectivity (A1/A2a); the molecule in question is Nc1cc(C(=O)NC2CCCCC2)cc2nc(-c3ccoc3)nn12
stdout: 13.3

stdin: Indicate its recorded selectivity (A1/A2a); the molecule in question is Nc1cc(C(=O)NCc2ccccc2)cc2nc(-c3ccc(Br)o3)nn12
stdout: 5.1

stdin: Indicate its recorded selectivity (A1/A2a); the molecule in question is CCCCCN(C)C(=O)c1cc(N)n2nc(-c3nccs3)nc2c1
stdout: 13.9

a. Nc1cc(C(=O)N2CCOCC2)cc2nc(-c3ccco3)nn12
b. CC1CCCN1C(=O)c1cc(N)n2nc(-c3ccc(Cl)o3)nc2c1 (stereo not drawn)
c. CC(NC(=O)c1cc(N)n2nc(-c3nccs3)nc2c1)c1ccccc1 (stereo not drawn)
stdin: Rank entries according to their selectivity (A1/A2a), from the largest number down. Write out the labels following the order that was asked for.
stdout: b, a, c
(b: 44.8, a: 20.7, c: 4.3)

a. CC1CCC(C)N1C(=O)c1cc(N)n2nc(-c3ccc(Br)o3)nc2c1 (stereo not drawn)
b. CN(Cc1ccccc1)C(=O)c1cc(N)n2nc(-c3ccccc3)nc2c1
stdin: Compare a and b by numeric selectivity (A1/A2a) and name the larger one. Which one? Tell me its label.
stdout: a

* * *

Molecular target: human adenosine A2A receptor (Homo sapiens)
Construct: expressed in transfected cells; host or cells: CHO cells, Semliki Forest virus expression system; membrane preparation
Assay: Human adenosine A2A receptor [3H]-SCH-58261 binding assay
Conditions: calculated ratio of the affinity to the HA1 receptor to the HA2a receptor
outcome measure: selectivity (A1/A2a)

stdin: Indicate its recorded selectivity (A1/A2a); the compound in question is Nc1cc(C(=O)N2CCCC2)cc2nc(-c3ccccc3)nn12 [Example 150]
stdout: 8.6

1. CC(NC(=O)c1cc(N)n2nc(-c3ccccn3)nc2c1)c1ccccc1 (stereo not drawn) [Example 44]
2. CC1C=CC(C)N1C(=O)c1cc(N)n2nc(-c3ccc(Br)o3)nc2c1 (stereo not drawn) [Example 273]
stdin: Consider entries 1 and 2 . Which has the numerically lower selectivity (A1/A2a)? Which one? Tell me its label.
stdout: 1
(1: 2.7, 2: 64.4)

I. CN(Cc1ccccc1)C(=O)c1cc(N)n2nc(-c3ccccn3)nc2c1 [Example 32]
II. CCCNC(=O)c1cc(N)n2nc(-c3cccnc3)nc2c1 [Example 82]
III. Cc1ccsc1-c1nc2cc(C(=O)N(C(C)C)C(C)C)cc(N)n2n1 [Example 186]
stdin: Please put the entries in order of rising selectivity (A1/A2a). Write out the labels following the order that was asked for.
stdout: III, I, II

a. Cc1ccc(-c2nc3cc(C(=O)N4CCCCC4)cc(N)n3n2)s1 [Example 114]
b. Nc1cc(C(=O)NCCc2ccccc2Cl)cc2nc(-c3ccccn3)nn12 [Example 50]
c. C[C@@H]1CC[C@@H](C)N1C(=O)c1cc(N)n2nc(-c3ccc(Br)o3)nc2c1 [Example 359]
stdin: Please put the entries in order of rising selectivity (A1/A2a). Write out the labels following the order that was asked for.
stdout: b, a, c
(b: 1.0, a: 27.3, c: 128.0)

* * *

Target: human adenosine A2A receptor (Homo sapiens, UniProt P29274)
Construct: expressed in transfected cells; host or cells: CHO cells, Semliki Forest virus expression system; membrane preparation
Experiment: Human adenosine A2A receptor [3H]-SCH-58261 binding assay
Settings: affinity to human adenosine A2A receptor; read-out: Ki HA2A
outcome measure: Ki (nM)

a. Nc1cc(C(=O)NC2CCCCC2)cc2nc(-c3ccccc3)nn12
b. COc1ccccc1CNC(=O)c1cc(N)n2nc(-c3ccc(C)s3)nc2c1
stdin: Consider entries a and b . Which has the numerically lower Ki? Which one? Tell me its label.
stdout: b

I. CCN(Cc1ccncc1)C(=O)c1cc(N)n2nc(-c3nccs3)nc2c1
II. Nc1cc(C(=O)N2CCCCC2)cc2nc(-c3ccccn3)nn12
stdin: Compare I and II by numeric Ki and name the larger one. Which one? Tell me its label.
stdout: II

* * *

Target: human adenosine A2A receptor (Homo sapiens)
Construct: expressed in transfected cells; host or cells: CHO cells, Semliki Forest virus expression system; membrane preparation
Assay: Human adenosine A2A receptor [3H]-SCH-58261 binding assay
Conditions: recombinant human A2A in CHO cell membranes, [3H]-SCH-58261, Cheng-Prussoff; read-out: Ki hA2A
pKi: −log10 of the molar value.
outcome measure: pKi

stdin: Indicate its recorded pKi; the compound in question is CCN(CC)C(=O)C1CCCN(C(=O)c2cc(N)n3nc(-c4ccccn4)nc3c2)C1 (stereo not drawn)
stdout: 6.93

I. NC(=O)[C@@H]1CCCN1C(=O)c1cc(N)n2nc(-c3ccc(Br)o3)nc2c1 [Example 389]
II. CN(C)C(=O)C1CCCN1C(=O)c1cc(N)n2nc(-c3ccccn3)nc2c1 (stereo not drawn)
stdin: Consider entries I and II . Which has the numerically lower pKi? Which one? Tell me its label.
stdout: II
(II: 7.06, I: 8.01)

A. CCC1CCC(C)N(C(=O)c2cc(N)n3nc(-c4ccc(Br)o4)nc3c2)C1 (stereo not drawn)
B. CN(C)C(=O)CN(C)C(=O)c1cc(N)n2nc(-c3ccccn3)nc2c1
stdin: Consider entries A and B . Which has the numerically lower pKi? Which one? Tell me its label.
stdout: B
(B: 6.93, A: 8.54)

* * *

Target: HA1 adenosine receptor (Homo sapiens, UniProt P30542)
Sequence (P30542 1-326): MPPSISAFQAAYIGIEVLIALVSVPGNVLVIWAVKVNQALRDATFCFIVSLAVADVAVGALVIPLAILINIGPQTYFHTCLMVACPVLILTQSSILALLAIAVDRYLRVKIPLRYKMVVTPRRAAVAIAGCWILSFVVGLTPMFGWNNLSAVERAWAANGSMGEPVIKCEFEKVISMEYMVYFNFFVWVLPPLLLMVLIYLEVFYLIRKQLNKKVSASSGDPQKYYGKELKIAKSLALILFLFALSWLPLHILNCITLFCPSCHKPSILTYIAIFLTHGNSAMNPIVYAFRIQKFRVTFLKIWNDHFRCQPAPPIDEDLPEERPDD
Experiment: Human adenosine A1 receptor affinity (Ki hA1)
Type: binding
Details: affinity to human adenosine A1 receptor
pKi: −log10 of the molar value.
outcome measure: pKi

Reference set (8 entries):
stdin: Give reported pKi for Cc1ccsc1-c1nc2cc(C(=O)N(C(C)C)C(C)C)cc(N)n2n1 (HA1 adenosine receptor (Homo sapiens, UniProt P30542))
stdout: 6.60

stdin: Give reported pKi for Nc1cc(C(=O)NCc2ccccc2Br)cc2nc(-c3ccccn3)nn12 (HA1 adenosine receptor (Homo sapiens, UniProt P30542))
stdout: 6.96

stdin: Give reported pKi for Nc1cc(C(=O)N2CCCCC2)cc2nc(-c3nccs3)nn12 (HA1 adenosine receptor (Homo sapiens, UniProt P30542))
stdout: 5.45

stdin: Give reported pKi for CC1CCC(C)N1C(=O)c1cc(N)n2nc(-c3ccc(Cl)o3)nc2c1 (stereo not shown) (HA1 adenosine receptor (Homo sapiens, UniProt P30542))
stdout: 6.66

stdin: Give reported pKi for Nc1cc(C(=O)N2CCCCCC2)cc2nc(-c3nccs3)nn12 (HA1 adenosine receptor (Homo sapiens, UniProt P30542))
stdout: 5.94

stdin: Give reported pKi for Nc1cc(C(=O)NC2CCCCC2)cc2nc(-c3ccc(Cl)o3)nn12 (HA1 adenosine receptor (Homo sapiens, UniProt P30542))
stdout: 6.34

stdin: Give reported pKi for CCCCNC(=O)c1cc(N)n2nc(-c3ccoc3)nc2c1 (HA1 adenosine receptor (Homo sapiens, UniProt P30542))
stdout: 6.12

stdin: Give reported pKi for CCCCNC(=O)c1cc(N)n2nc(-c3ccccc3)nc2c1 (HA1 adenosine receptor (Homo sapiens, UniProt P30542))
stdout: 6.97

1. Nc1cc(C(=O)NCc2ccccc2)cc2nc(-c3ccc(Cl)o3)nn12
2. Nc1cc(C(=O)N2CCN(c3ccccc3)CC2)cc2nc(-c3ccc(Br)o3)nn12
stdin: Consider entries 1 and 2 . Which has the numerically lower pKi? Which one? Tell me its label.
stdout: 2
(2: 5.98, 1: 7.03)

a. Cc1ccc(-c2nc3cc(C(=O)N(Cc4ccccc4)C(C)C)cc(N)n3n2)o1
b. Cn1cccc1-c1nc2cc(C(=O)N3CCCC3)cc(N)n2n1
c. Nc1cc(C(=O)N2CCCCC2)cc2nc(-c3ccc(Cl)o3)nn12
d. Cc1ccc(-c2nc3cc(C(=O)NCc4ccccc4Br)cc(N)n3n2)s1
stdin: Please put the entries in order of rising pKi. Write out the labels following the order that was asked for.
stdout: b, c, a, d
(b: 5.57, c: 6.49, a: 6.91, d: 7.42)

P. Nc1cc(C(=O)NC2CCc3ccccc32)cc2nc(-c3ccccc3)nn12 (stereo not shown)
Q. CN(CC1CC1)C(=O)c1cc(N)n2nc(-c3ccc(Cl)o3)nc2c1
stdin: Compare P and Q by numeric pKi and name the larger one. Which one? Tell me its label.
stdout: P

I. CC1CN(C(=O)c2cc(N)n3nc(-c4ccc(Br)o4)nc3c2)CC(C)O1 (stereo not shown)
II. CCCCNC(=O)c1cc(N)n2nc(-c3ccccn3)nc2c1
III. Nc1cc(C(=O)NCc2ccccc2Cl)cc2nc(-c3ccc[nH]3)nn12
stdin: Please put the entries in order of rising pKi. Write out the labels following the order that was asked for.
stdout: III, I, II
(III: 5.82, I: 6.42, II: 6.62)
